Please provide measured self-cleavage for the entries that follow.
B1: LINE1-mini (parent)
chain: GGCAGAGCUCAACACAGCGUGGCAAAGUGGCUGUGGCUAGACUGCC

Variants of: B1
Test: self-cleavage, relative activity (ratio to wild type); higher = more cleavage; in vitro, sequencing; the parent is a self-cleaving ribozyme
One number for each entry.

Below is a list of variants. For each, state its recorded self-cleavage.
1. GGCAGAGCUCAACACAGCGUGGCAGAGCGGCUGUGGCUAGACUGCC
2. GGCAGAGCUCAAAACAGCGUGGCAAAGUGGCUGUGGCUAGACUGUC
3. GGCAGAGCUCAACACAGCGUCGCAAAGUGGCUGUGGCUAGACUCCC
4. GGCAGAGCUCAACACAGCGGGGCAAAGUGGGUGUGGCUAGACUGCC

Ans.
[0.84, 0.15, 0.4, 0.04]

All values here come from the RNAGym collection of RNA variant scans (doi:10.7554/elife.90254).
